Test system: SN12C renal
Assay: NCI tumour cell line growth inhibition, 48 h
MEASURED_ENDPOINT: TGI

(Q) Sample Cc1cc(O)c(C(=O)CC2(O)C(=O)Nc3c(Cl)cc(Cl)cc32)c(=O)o1 (stereo not given) — what was its TGI?
(A) > 100 µM

(Q) Sample O=c1c2ncn(C3CCCCO3)c2n(-c2ccccc2)c(=S)n1-c1ccccc1 (stereo not given) — what was its TGI?
(A) > 100 µM

(Q) Sample C/C=C(\C)C(=O)N[C@H]1[C@@H](OC(C)=O)C[C@]2(C)C3CC[C@@]4(C)C(CC[C@@H]4C(C)N(C)C)C3CCC2[C@H]1O (stereo not given in full) — what was its TGI?
(A) 19.6 µM

(Q) Sample CN1c2ccccc2C(=O)NC12CCN(Cc1ccccc1)CC2 — what was its TGI?
(A) > 100 µM

(Q) Sample CCSCC(=O)N1CCc2c([nH]c3ccccc23)C1=O — what was its TGI?
(A) > 100 µM

----------
Tested on: OVCAR-5 ovarian
Experiment: NCI tumour cell line growth inhibition, 48 h
Label 0.0 if TGI falls below 30 µM; label 1.0 in every other case.

(Q) # bool: TGI of CN(C)CCCN=C(N)N >= 30 µM
(A) 1.0

(Q) # bool: TGI of CC(=O)OC(CC(C)C)P1(=O)N(CC(C)(C)C)[C@@H]2CCCC[C@H]2N1CC(C)(C)C (some centres undefined) >= 30 µM
(A) 0.0

(Q) # bool: TGI of O=C(Nc1ccc(-n2cc(-c3ccncc3)c(-c3ccc(O)c(Cl)c3)n2)cc1)c1cc(Cl)cc(Cl)c1 >= 30 µM
(A) 1.0

(Q) # bool: TGI of CC(=O)NC1=C(Nc2ccc(C)cc2)C(=O)c2ccccc2C1=O >= 30 µM
(A) 0.0

(Q) # bool: TGI of CC1(C)COCN1COC1CCCCC1 >= 30 µM
(A) 1.0

(Q) # bool: TGI of O=C(c1cc(F)c(Cl)cc1Cl)N1N=C(c2ccccc2)CC1(O)c1ccccc1 (centres undefined) >= 30 µM
(A) 1.0

(Q) # bool: TGI of C/C=C1/CN2[C@@H](C3=C[C@@H]4[C@@H]5N(C3=O)c3ccccc3[C@@]53CCN5C/C(=C/C)[C@@H]4C[C@H]53)C[C@@]34c5ccccc5N5C(=O)CC=C([C@H]1C[C@H]23)[C@H]54 >= 30 µM
(A) 0.0

(Q) # bool: TGI of Cc1ccc(S(=O)(=O)N(CC(O)c2ccccc2)c2ccccc2F)cc1 (centres undefined) >= 30 µM
(A) 1.0

(Q) # bool: TGI of CC(=O)Nc1ccc(N2C(=O)CS(=O)(=O)C2c2cccc(Oc3ccccc3)c2)cc1 (centres undefined) >= 30 µM
(A) 1.0

----------
Tested on: IGROV1 ovarian
Assay: NCI tumour cell line growth inhibition, 48 h
Answer each item with its documented TGI.

(Q) Sample CC(C)=NNc1cnnc2ccc([N+](=O)[O-])cc12 — what was its TGI?
(A) > 100 µM

(Q) Sample [N-]=[N+]=NC1=NNC2(C(=O)N1)c1ccccc1-c1ccccc12 — what was its TGI?
(A) > 100 µM

(Q) Sample COc1cc(NC(=O)c2cc(OC)c3ccn(C)c3c2)cc2c1C[C@]1(C)CC[C@@H](O)C(C)(C)[C@H]1O2 — what was its TGI?
(A) > 100 µM

(Q) Sample O=C(NC1CC1)c1ccc(-c2nc3ccc4[nH]ncc4c3c3c2CCCC3)cc1 — what was its TGI?
(A) > 50 µM

(Q) Sample CC(=O)Nc1nc(SCc2ccccc2)c2ncn(C(C)=O)c2n1 — what was its TGI?
(A) > 100 µM

----------
Answer each item with its documented GI50.
Tested on: EKVX NSCLC
Test: NCI tumour cell line growth inhibition, 48 h

(Q) Sample O=C1/C(=C/c2ccc(O)c([N+](=O)[O-])c2)CCC/C1=C\c1ccc(O)c([N+](=O)[O-])c1 — what was its GI50?
(A) 15 µM

(Q) Sample COC(=O)NC/C=C\c1nc(CC/C=C\C(=O)OC2CC3CC(=O)O[C@H](/C=C/CC(C)C)C[C@H]4CCC(C)C(C[C@H](OC)CC(C2)O3)O4)co1 (stereo partly specified) — what was its GI50?
(A) < 0.01 µM

(Q) Sample CC(=O)Nc1nc(SCc2ccccc2)c2ncn(C(C)=O)c2n1 — what was its GI50?
(A) 71.6 µM

(Q) Sample COC(=O)COc1ccc(/C=C2\N=C(c3ccccc3)N(c3cc(C(F)(F)F)ccc3Cl)C2=O)cc1 — what was its GI50?
(A) > 100 µM

(Q) Sample NCCCC(=O)Nc1ccncc1 — what was its GI50?
(A) > 100 µM

(Q) Sample O=C(NC1CC1)c1ccc(-c2nc3ccc4[nH]ncc4c3c3c2CCCC3)cc1 — what was its GI50?
(A) 1.33 µM

(Q) Sample COc1cc(NC(=O)c2cc(OC)c3ccn(C)c3c2)cc2c1C[C@]1(C)CC[C@@H](O)C(C)(C)[C@H]1O2 — what was its GI50?
(A) 11.3 µM

(Q) Sample COc1ccc(CNc2nc3cc(N)cc(N)c3nc2-c2ccccc2)cc1OC — what was its GI50?
(A) 13 µM

(Q) Sample CCN(CC)CCOc1ccc(Nc2ncc3cc(-c4ccc(O)cc4)c(=O)n(C)c3n2)cc1 — what was its GI50?
(A) 15.1 µM

(Q) Sample CC(=O)OCC1OC(OC2CC3C(C)(C)C(OC(C)=O)CC[C@]3(C)C3CCC45CC4(CC[C@H]5C(C)CC(O)[C@@H](O)C(C)(C)O)[C@]23C)C(O)C(O)C1O (stereo partly specified) — what was its GI50?
(A) 15.8 µM

(Q) Sample C=C1C[C@@H]2C/C=C/C(=O)C/C(C)=C\C=C\C(=O)O[C@H](C=O)C/C(C)=C/[C@H](C1)O2 — what was its GI50?
(A) 3.68 µM

----------
Tested on: 786-0 renal
Assay: NCI tumour cell line growth inhibition, 48 h
MEASURED_ENDPOINT: TGI

(Q) Report TGI for CC(=O)[C@H]1CC[C@H]2[C@@H]3CCC4=CC(=O)CC[C@]4(C)[C@H]3CC[C@]12C tested on 786-0 renal.
(A) 54.2 µM

(Q) Report TGI for O=C1C(=Cc2ccco2)C(=O)C2CCCCC12 (stereo unspecified) tested on 786-0 renal.
(A) > 100 µM

(Q) Report TGI for COc1ccc2c(c1)c(=O)c1c(NCCCN(C)CCCNc3ccc4c(=O)n(CCN(C)C)c(=O)n5c6ccc(OC)cc6c(=O)c3c45)ccc3c(=O)n(CCN(C)C)c(=O)n2c31 tested on 786-0 renal.
(A) 1.48 µM

(Q) Report TGI for Cc1ccc2ccc(=O)oc2c1 tested on 786-0 renal.
(A) > 100 µM

(Q) Report TGI for CC1(C)COCN1COC1CCCCC1 tested on 786-0 renal.
(A) > 100 µM

(Q) Report TGI for N#CC(c1nc2ccccc2s1)c1nc(Cl)ncc1Br (stereo unspecified) tested on 786-0 renal.
(A) > 100 µM

(Q) Report TGI for CC1Cc2c(N)nc(NN)nc2NC1=O (stereo unspecified) tested on 786-0 renal.
(A) > 100 µM

(Q) Report TGI for N/N=C(\CC1OC(=O)c2ccccc21)c1ccco1 (stereo unspecified) tested on 786-0 renal.
(A) 0.164 µM

(Q) Report TGI for CC(C)=CC(=O)Oc1ccc([N+](=O)[O-])cc1 tested on 786-0 renal.
(A) > 100 µM

(Q) Report TGI for O=C(Nc1ccc(-n2cc(-c3ccncc3)c(-c3ccc(Cl)c(O)c3)n2)cc1)Nc1cc(C(F)(F)F)cc(C(F)(F)F)c1 tested on 786-0 renal.
(A) 3.72 µM

(Q) Report TGI for CC(/C=N/N(C)C1=NCCCCN1)=N/N(C)C1=NCCCCN1 tested on 786-0 renal.
(A) > 100 µM

----------
System: COLO 205 colon
Experiment: NCI tumour cell line growth inhibition, 48 h
MEASURED_ENDPOINT: GI50

(Q) Sample CC(=O)[CH-]C(=O)c1ccccc1.CC(=O)[CH-]C(=O)c1ccccc1.CC(=O)[CH-]C(=O)c1ccccc1.[Tl+3] — what was its GI50?
(A) 25.9 µM

(Q) Sample COc1c(C)c2c(c(O)c1C/C=C(\C)CCC(=O)OCCN1CCOCC1)C(=O)OC2 — what was its GI50?
(A) 0.692 µM

(Q) Sample CC(=O)C1CC2(c3ccc(C)cc3)C(c3ccc(C)cc3)=C(c3ccc(C)cc3)C1(c1ccc(C)cc1)S2=O (configuration not stated) — what was its GI50?
(A) > 100 µM

(Q) Sample N=C1c2nc3n(c2C(=O)c2nc4n(c21)CCCC4)CCCC3 — what was its GI50?
(A) 1.83 µM

(Q) Sample O=C(NC1CC1)c1ccc(-c2nc3ccc4[nH]ncc4c3c3c2CCCC3)cc1 — what was its GI50?
(A) 1.8 µM

(Q) Sample CC(C)(C)C(=O)Nc1ccccc1I(=O)=O — what was its GI50?
(A) > 100 µM

(Q) Sample C[C@@H]1O[C@@H](O[C@@H]2[C@@H](O)[C@H](OCCc3ccc(O)c(O)c3)O[C@H](COC(=O)/C=C/c3ccc(O)c(O)c3)[C@H]2O)[C@H](O)[C@H](O)[C@H]1O — what was its GI50?
(A) > 100 µM

(Q) Sample CC1(C)NCCC[C@]2(C)[C@H]3C=CC4=C5C[C@](C)(CO)CC[C@]5(C)CC[C@@]4(C)[C@]3(C)CC[C@@H]12 — what was its GI50?
(A) 3.63 µM

(Q) Sample COc1ccc2nc(-c3ccccc3)cc(Nc3ccc(C(C)=O)cc3)c2c1 — what was its GI50?
(A) 16.4 µM

(Q) Sample COC(=O)COc1ccc(/C=C2\N=C(c3ccccc3)N(c3cc(C(F)(F)F)ccc3Cl)C2=O)cc1 — what was its GI50?
(A) 54.4 µM

(Q) Sample CC1(C)OC[C@@H]([C@@]2(CO[Si](C)(C)C(C)(C)C)CC=CC(=O)O2)O1 — what was its GI50?
(A) 33.5 µM

(Q) Sample CCCc1ccc(S(=O)(=O)N[C@H]2CC[C@H]3[C@@H]4CCc5cc(O)ccc5[C@H]4CC[C@]23C)cc1 — what was its GI50?
(A) 1.84 µM
